The measurements presented in this section are drawn from patent US7718668B2.

Where a name gives a salt, the structure may show the parent alone.
Test readout: melting point

>>> print(df.to_string())
                                   molecule  value_measured
0  CCOc1cc2c(cc1OC)C(c1ccc(=O)n(C)c1)=N[C@@H]1CC[C@@H](O)C[C@H]21 [compound 9]          147 °C
1  CCOc1cc2c(cc1OC)C(c1cnc(N(C)C)nc1)=N[C@@H]1CC[C@@H](O)C[C@H]21 (as salt: tartrate) [compound 13]          206 °C
2  CCOc1cc2c(cc1OC)C(c1ccc(OC)nc1OC)=N[C@@H]1CC[C@@H](O)C[C@H]21 (as salt: hydrochloride) [compound 8]          164 °C
3  CCOc1cc2c(cc1OC)C(c1cnc(OC)cc1OC)=N[C@@H]1CC[C@@H](O)C[C@H]21 (as salt: fumarate) [compound 12]          194 °C

* * *

In this section, each of the compounds is paired with its reported melting point.
Counter-ions that a name gives are not always drawn.
Test readout: melting point (°C)

>>> print(df.to_string())
                                    compound  value_measured
 0  CCOc1cc2c(cc1OC)C(c1cnc(OC)nc1)=N[C@@H]1CC[C@@H](O)C[C@H]21             124
 1  CCOc1cc2c(cc1OC)C(c1ccc(OC)nc1OC)=N[C@@H]1CC[C@@H](O)C[C@H]21 (as salt: mesylate) [compound 8]             193
 2  CCOc1cc2c(cc1OC)C(c1ccc(OC)nc1)=N[C@@H]1CC[C@@H](O)C[C@H]21 (as salt: fumarate)             173
 3  CCOc1cc2c(cc1OC)C(c1ccc(-n3cccn3)nc1)=N[C@@H]1CC[C@@H](O)C[C@H]21 (as salt: fumarate)             170
 4  CCOc1cc2c(cc1OC)C(c1ccc(=O)n(C)c1)=N[C@@H]1CC[C@@H](O)C[C@H]21 (as salt: fumarate) [compound 9]             156
 5  CCOc1cc2c(cc1OC)C(c1cnc(N(C)C)nc1)=N[C@@H]1CC[C@@H](O)C[C@H]21 [compound 13]             112
 6  CCOc1cc2c(cc1OC)C(c1cnc(N(C)C)nc1OC)=N[C@@H]1CC[C@@H](O)C[C@H]21 (as salt: tartrate) [compound 11]             249
 7  CCOc1cc2c(cc1OC)C(c1ccc(OC)nc1OC)=N[C@@H]1CC[C@@H](O)C[C@H]21 (as salt: hydrobromid) [compound 8]             163
 8  CCOc1cc2c(cc1OC)C(c1cnc(N(C)C)nc1OC)=N[C@@H]1CC[C@@H](O)C[C@H]21 (as salt: fumarate) [compound 11]             123
 9  CCOc1cc2c(cc1OC)C(c1ccc(OC)nc1OC)=N[C@@H]1CC[C@@H](O)C[C@H]21 (as salt: tosylate) [compound 8]             218
10  CCOc1cc2c(cc1OC)C(c1ccc(=O)n(C)c1)=N[C@@H]1CC[C@@H](O)C[C@H]21 (as salt: tartrate) [compound 9]             205
11  CCOc1cc2c(cc1OC)C(c1cnc(N(C)C)nc1)=N[C@@H]1CC[C@@H](O)C[C@H]21 (as salt: fumarate) [compound 13]             210
12  CCOc1cc2c(cc1OC)C(c1cnc(N(C)C)nc1OC)=N[C@@H]1CC[C@@H](O)C[C@H]21 [compound 11]             124
